# studySystem: NLRP3 inflammasome (Homo sapiens, UniProt Q96P20)
# Construct: endogenous in cells
# Sequence (Q96P20 whole entry): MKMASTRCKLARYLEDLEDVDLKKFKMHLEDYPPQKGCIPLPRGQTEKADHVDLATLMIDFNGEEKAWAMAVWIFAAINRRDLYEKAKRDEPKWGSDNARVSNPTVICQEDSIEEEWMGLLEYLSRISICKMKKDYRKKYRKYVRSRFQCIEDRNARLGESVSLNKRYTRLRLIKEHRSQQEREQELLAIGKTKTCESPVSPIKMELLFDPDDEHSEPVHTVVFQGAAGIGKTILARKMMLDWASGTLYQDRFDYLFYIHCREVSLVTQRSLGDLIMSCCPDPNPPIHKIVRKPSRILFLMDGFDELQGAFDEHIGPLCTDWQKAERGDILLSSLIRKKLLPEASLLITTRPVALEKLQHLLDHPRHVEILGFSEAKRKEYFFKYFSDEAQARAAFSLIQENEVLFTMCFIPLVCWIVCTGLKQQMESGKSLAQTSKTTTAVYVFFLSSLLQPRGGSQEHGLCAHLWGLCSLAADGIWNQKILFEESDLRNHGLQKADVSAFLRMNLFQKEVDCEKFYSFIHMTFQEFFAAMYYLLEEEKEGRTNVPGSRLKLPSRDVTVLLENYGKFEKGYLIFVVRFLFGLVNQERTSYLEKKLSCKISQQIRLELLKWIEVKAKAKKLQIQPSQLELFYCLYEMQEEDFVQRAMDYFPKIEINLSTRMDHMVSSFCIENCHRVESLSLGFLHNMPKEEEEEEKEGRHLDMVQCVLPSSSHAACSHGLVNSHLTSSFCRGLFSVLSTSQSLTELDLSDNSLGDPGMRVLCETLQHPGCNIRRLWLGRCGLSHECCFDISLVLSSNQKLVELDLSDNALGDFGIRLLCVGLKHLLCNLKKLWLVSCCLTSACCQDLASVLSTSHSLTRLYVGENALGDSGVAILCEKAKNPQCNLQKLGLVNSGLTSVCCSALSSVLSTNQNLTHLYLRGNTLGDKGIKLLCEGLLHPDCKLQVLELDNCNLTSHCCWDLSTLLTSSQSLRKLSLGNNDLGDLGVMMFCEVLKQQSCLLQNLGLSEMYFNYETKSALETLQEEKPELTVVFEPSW
# testMethodNotes: IL-1β secretion assay (NLRP3 IC50) in LPS-primed, nigericin-activated THP-1 cells, HTRF
# conditionInfo: monocytic THP-1 cells; LPS 10 ng/mL 3 h priming, then compound + nigericin 10 μM 2 h; relative IC50, 10 concentrations, geometric mean
IC50 strictly under 400 nM means 1 (yes); at 400 nM or over means 0 (no).

A record lists Cc1cc(C(F)(F)F)cc(O)c1-c1cc(C#N)c(N2CCO[C@H](CO)C2)nn1 . Is its IC50 below 400 nM?
1 (yes)

A record lists Cc1cc(C(F)(F)F)cc(O)c1-c1ccc(N2CCOC(C(C)(C)O)C2)nn1 (single isomer, unassigned) [Example 53] . Is its IC50 below 400 nM?
1 (yes)

A record lists Cc1cc(C(F)(F)F)cc(O)c1-c1ccc(N2CCOC(C(C)(C)O)C2)nn1 (single isomer, unassigned) [Example 52] . Is its IC50 below 400 nM?
0 (no)

A record lists Cc1cc(C(F)(F)F)cc(O)c1-c1ccc(N2CC[C@@H]3CN(C)C[C@@H]32)nn1 (single isomer, unassigned) . Is its IC50 below 400 nM?
0 (no)

###

# studySystem: NLRP3 inflammasome (Homo sapiens)
# Construct: endogenous in cells
# testMethodNotes: IL-1β secretion assay (NLRP3 IC50) in LPS-primed, nigericin-activated THP-1 cells, HTRF
# conditionInfo: monocytic THP-1 cells; LPS 10 ng/mL 3 h priming, then compound + nigericin 10 μM 2 h; relative IC50, 10 concentrations, geometric mean
pIC50: −log10 of the molar value.
Binary call on pIC50: fulfilled from 7 upward, not fulfilled beneath that.

Confirm if pIC50 reported for the molecule Cc1cc(C)c(-c2ccc(N3CCO[C@H](C(N)=O)C3)nn2)c(O)c1 is 7 or above.
not fulfilled

Confirm if pIC50 reported for the molecule CCc1cccc(O)c1-c1ccc(N2CCO[C@@H]3CCN(C)C[C@@H]32)nn1 is 7 or above.
fulfilled

Confirm if pIC50 reported for the molecule Cc1cc(C(F)(F)F)cc(O)c1-c1ccc(N2CCC[C@H]3CCN(C)C[C@H]32)nn1 is 7 or above.
fulfilled

Confirm if pIC50 reported for the molecule CCc1cccc(O)c1-c1ccc(N2CC[C@@H]3CCN(C)C[C@@H]32)nn1 (single isomer, unassigned) [Example 422] is 7 or above.
not fulfilled

Confirm if pIC50 reported for the molecule Cc1cc(C(F)(F)F)cc(O)c1-c1ccc(N2CCO[C@@H]3CCN(C)C[C@H]32)nn1 (single isomer, unassigned) is 7 or above.
not fulfilled

Confirm if pIC50 reported for the molecule Cc1cc(C)c(-c2ccc(N3C4CCC3COC4)nn2)c(O)c1 is 7 or above.
not fulfilled

Confirm if pIC50 reported for the molecule CCN1CC[C@@H]2OCCN(c3ccc(-c4c(C)cc(Cl)cc4O)nn3)[C@@H]2C1 (single isomer, unassigned) [Example 312] is 7 or above.
fulfilled

Confirm if pIC50 reported for the molecule Cc1cc(C)c(-c2cc(C(F)F)c(N3CCO[C@@H]4CCN(C)C[C@@H]43)nn2)c(O)c1 is 7 or above.
fulfilled

Confirm if pIC50 reported for the molecule Oc1cc(Cl)cc(Cl)c1-c1ccc(N2CCSCC2)nn1 is 7 or above.
not fulfilled

Confirm if pIC50 reported for the molecule Cc1cc(C)c(-c2ccc(N3CCC[C@H](N(C)C)C3)nn2)c(O)c1 is 7 or above.
not fulfilled

###

# studySystem: NLRP3 inflammasome (Homo sapiens, UniProt Q96P20)
# Construct: endogenous in cells
# testMethodNotes: IL-1β secretion assay (NLRP3 IC50) in LPS-primed, nigericin-activated THP-1 cells, HTRF
# conditionInfo: monocytic THP-1 cells; LPS 10 ng/mL 3 h priming, then compound + nigericin 10 μM 2 h; relative IC50, 10 concentrations, geometric mean
pIC50: −log10 of the molar value.
Binary call on pIC50: YES from 8 upward, NO beneath that.

Confirm if pIC50 reported for the compound Cc1cc(C)c(-c2cc(C(F)F)c(N3CC[C@H]4CCN(C)C[C@H]43)nn2)c(O)c1 (single isomer, unassigned) is 8 or above.
YES

Confirm if pIC50 reported for the compound Cc1cc(C(F)(F)F)cc(O)c1-c1cc(C(F)F)c(N2CCO[C@H](CO)C2)nn1 is 8 or above.
YES

Confirm if pIC50 reported for the compound Cc1cc(C(F)(F)F)cc(O)c1-c1ccc(N2CC[C@@H]3CCN(C)C[C@@H]32)nn1 [Example 392] is 8 or above.
YES

Confirm if pIC50 reported for the compound Cc1cc(C(F)(F)F)cc(O)c1-c1ccc(N2CC[C@@H](CO)CC2=O)nn1 is 8 or above.
NO

Confirm if pIC50 reported for the compound OC[C@@H]1CCN1c1ccc(-c2c(O)cc(Cl)cc2Cl)nn1 is 8 or above.
NO

Confirm if pIC50 reported for the compound Cc1cccc(O)c1-c1ccc(N2CCO[C@@H]3CCN(C)C[C@@H]32)nn1 is 8 or above.
NO

Confirm if pIC50 reported for the compound CC(=O)N1CC[C@H]2OCCN(c3ccc(-c4c(C)cc(C(F)(F)F)cc4O)nn3)[C@H]2C1 (racemic) is 8 or above.
NO

###

# studySystem: NLRP3 inflammasome (Homo sapiens, UniProt Q96P20)
# Construct: endogenous in cells
# testMethodNotes: IL-1β secretion assay (NLRP3 IC50) in LPS-primed, nigericin-activated THP-1 cells, HTRF
# conditionInfo: monocytic THP-1 cells; LPS 10 ng/mL 3 h priming, then compound + nigericin 10 μM 2 h; relative IC50, 10 concentrations, geometric mean
# Experimental: Monocytic THP-1 cells were maintained in RPMI 1640 media (Gibco 21875)+10% FBS, (Gibco 10500)+1% penicillin/streptomycin (Gibco 15140-122). […] 16 μL supernatant was removed, and IL-1β levels were monitored using an HTRF assay (Human IL1b Kits HTRF Cisbio ref: 62HILBPEH) according to manufacturers' instructions. […] Relative IC50 (IC50 rel) were obtained from a dose response curve with 10 concentrations. Final IC50 rels are expressed as the geometric mean. […]
measure: IC50 (nM)
Lab book: enter the figure in nM, no units written.

Consider the compound CCN1CC[C@H]2OCCN(c3ccc(-c4c(C)cc(C(F)(F)F)cc4O)nn3)[C@H]2C1 (single isomer, unassigned) and give its recorded IC50.
1

Consider the compound CCc1cccc(O)c1-c1cc(C)c(N2CCO[C@@H]3CCN(C)C[C@@H]32)nn1 and give its recorded IC50.
569

Consider the compound Cc1ccc(-c2nnc(N3CC[C@@H]4CCN(C)C[C@@H]43)cc2C)c(O)c1 (single isomer, unassigned) [Example 374] and give its recorded IC50.
42

Consider the compound Cc1cc(C)c(-c2ccc(N3CCO[C@@H]4CCN(C)C[C@@H]43)nn2)c(O)c1 and give its recorded IC50.
2

Consider the compound Cc1cc(C)c(-c2ccc(N3CCCc4cc(O)ccc43)nn2)c(O)c1 and give its recorded IC50.
556

Consider the compound CCN1CC[C@H]2OCCN(c3cc(C)c(-c4ccc(F)cc4O)nn3)[C@H]2C1 and give its recorded IC50.
5

Consider the compound Cc1cc(C(F)(F)F)cc(O)c1-c1ccc(N2CCOC(CO)C2=O)nn1 (single isomer, unassigned) [Example 420] and give its recorded IC50.
601

###

# studySystem: NLRP3 inflammasome (Homo sapiens)
# Construct: endogenous in cells
# testMethodNotes: IL-1β secretion assay (NLRP3 IC50) in LPS-primed, nigericin-activated THP-1 cells, HTRF
# conditionInfo: monocytic THP-1 cells; LPS 10 ng/mL 3 h priming, then compound + nigericin 10 μM 2 h; relative IC50, 10 concentrations, geometric mean
# Method: Monocytic THP-1 cells were maintained in RPMI 1640 media (Gibco 21875)+10% FBS, (Gibco 10500)+1% penicillin/streptomycin (Gibco 15140-122). […] 16 μL supernatant was removed, and IL-1β levels were monitored using an HTRF assay (Human IL1b Kits HTRF Cisbio ref: 62HILBPEH) according to manufacturers' instructions. […] Relative IC50 (IC50 rel) were obtained from a dose response curve with 10 concentrations. Final IC50 rels are expressed as the geometric mean. […]
measure: IC50 (nM)
Lab book: enter the figure in nM, no units written.

Consider the compound Cc1cc(C)c(-c2ccc(N3CCC[C@@H](N)C3)nn2)c(O)c1 and give its recorded IC50.
520

Consider the compound Cc1cc(C)c(-c2ccc(N3CCO[C@H](C4(N)CC4)C3)nn2)c(O)c1 (single isomer, unassigned) and give its recorded IC50.
997

Consider the compound CCN1CCO[C@@H]2CN(c3ccc(-c4c(C)cc(C)cc4O)nn3)C[C@H]21 and give its recorded IC50.
3380

Consider the compound CCC(=O)C1CN(c2ccc(-c3c(C)cc(C)cc3O)nn2)CCO1 (centres unmarked) [Example 126] and give its recorded IC50.
484

Consider the compound Cc1cc(C)c(-c2ccc(N3CCOC[C@H]3CO)nn2)c(O)c1 and give its recorded IC50.
290

Consider the compound CCN1CC[C@H]2OCCN(c3ccc(-c4c(C)cc(Cl)cc4O)nn3)[C@H]2C1 (single isomer, unassigned) and give its recorded IC50.
0.3

Consider the compound Cc1cc(Cl)cc(O)c1-c1ccc(N2CCO[C@@H]3CCN(C)C[C@@H]32)nn1 (single isomer, unassigned) and give its recorded IC50.
1

Consider the compound CC(=O)N1CC[C@H]2[C@@H]1CCN2c1ccc(-c2c(C)cc(C(F)(F)F)cc2O)nn1 (racemic) and give its recorded IC50.
296

Consider the compound CNCC[C@@H]1CN(c2ccc(-c3c(C)cc(C(F)(F)F)cc3O)nn2)CCO1 (single isomer, unassigned) and give its recorded IC50.
1080

Consider the compound CCN1CC[C@H]2OCCN(c3cc(C)c(-c4ccc(C)cc4O)nn3)[C@H]2C1 and give its recorded IC50.
3

Consider the compound CN1CC[C@H]2CCN(c3ccc(-c4c(O)cccc4C(F)(F)F)nn3)[C@H]2C1 (single isomer, unassigned) [Example 427] and give its recorded IC50.
2

Consider the compound Oc1cc(Cl)cc(Cl)c1-c1ccc(N2CCC(F)(F)CC2)nn1 and give its recorded IC50.
672

Consider the compound CC(=O)N1CC[C@H]2CCN(c3nnc(-c4c(C)cc(C)cc4O)cc3C(F)F)[C@H]2C1 (single isomer, unassigned) and give its recorded IC50.
1770

Consider the compound [2H]C([2H])(O)[C@@H]1CN(c2ccc(-c3c(C)cc(C(F)(F)F)cc3O)nn2)CCO1 and give its recorded IC50.
11

Consider the compound CCN1CC[C@@H]2CCN(c3cc(C(F)F)c(-c4ccc(C)cc4O)nn3)[C@@H]2C1 (single isomer, unassigned) and give its recorded IC50.
232

Consider the compound Cc1cc(C)c(-c2ccc(N3CCO[C@H]4CCN(C)C[C@H]43)nn2)c(O)c1 (racemic) [Example 225] and give its recorded IC50.
3

Consider the compound CC(=O)N1CC[C@@H]2OCCN(c3ccc(-c4c(C)cc(C(F)(F)F)cc4O)nn3)[C@H]2C1 (single isomer, unassigned) and give its recorded IC50.
953

Consider the compound Cc1cc(C)c(-c2ccc(N3CC[C@@H](O)C3)nn2)c(O)c1 and give its recorded IC50.
467

Consider the compound Cc1ccc(-c2nnc(N3CCO[C@H](CO)C3)cc2C(F)(F)F)c(O)c1 and give its recorded IC50.
461

Consider the compound CCc1cc(C(F)(F)F)cc(O)c1-c1ccc(N2CCO[C@H](CO)C2)nn1 and give its recorded IC50.
13

Consider the compound CCN1CC[C@H]2OCCN(c3cc(C(F)F)c(-c4ccc(Cl)cc4O)nn3)[C@H]2C1 and give its recorded IC50.
2

Consider the compound Cc1cc(C)c(-c2ccc(N3C[C@@H](O)CC3=O)nn2)c(O)c1 and give its recorded IC50.
506

Consider the compound Cc1ccc(-c2nnc(N3CC[C@@H]4CCN(C(C)C)C[C@@H]43)cc2C)c(O)c1 (racemic) and give its recorded IC50.
4.9

Consider the compound Cc1cc(C)c(-c2ccc(N3C[C@@H]4COC[C@H]4C3)nn2)c(O)c1 (stereo in doubt) and give its recorded IC50.
174

Consider the compound CC(=O)NC[C@@H]1COCCN1c1ccc(-c2c(C)cc(C)cc2O)nn1 and give its recorded IC50.
665

Consider the compound Cc1cc(C)c(-c2ccc(N3CC4CCC3CN(C)C4)nn2)c(O)c1 (centres unmarked) and give its recorded IC50.
2180

Consider the compound CCN1C[C@@H]2CCN(c3ccc(-c4c(C)cc(C(F)(F)F)cc4O)nn3)[C@@H]2C1 (racemic) and give its recorded IC50.
21

All figures here come from patent US20240360151A1.
